Tested on: Hela, human cervical carcinoma
Assay: preliminary anti-tumor screening in vitro, MTT method
Type: cell-based
Settings: 1 μM, read-out: inhibition rates (%) Hela
# inhibition at 1 µM per record follows

CC(C)C[C@H](NC(=O)[C@H](Cc1ccccc1)NC(=O)N[C@@H](Cc1ccccc1)C(=O)Nc1cnccn1)B(O)O :: 45.3%
CC(C)C[C@H](NC(=O)N[C@@H](Cc1ccccc1)C(=O)NCC1CCCO1)B(O)O (stereo partly shown) :: 14.2%
CC(C)C[C@H](NC(=O)N[C@@H](Cc1ccccc1)C(=O)N[C@@H](CC(C)C)C(=O)Nc1cnccn1)B1OC(C)(C)C(C)(C)O1 :: 20.2%

Consider the molecule COc1ccc(CNC(=O)[C@H](Cc2ccccc2)NC(=O)N[C@@H](CC(C)C)B(O)O)cc1 and give its measured inhibition at 1 µM.
28%

What about this molecule? CC(C)C[C@H](NC(=O)[C@H](Cc1ccccc1)NC(=O)NCc1cccc(Cl)c1Cl)B(O)O
42.5%

What about this molecule? CC(C)C[C@H](NC(=O)[C@H](Cc1ccccc1)NC(=O)[C@H](Cc1ccccc1)NC(=O)Nc1cccc(OCc2ccccc2)c1)B(O)O
42.5%

What about this molecule? CC(C)C[C@H](NC(=O)[C@H](Cc1ccccc1)NC(=O)Nc1cccc(OCc2ccccc2)c1)B(O)O
34.1%
